- System: Bel7402/5-FU
- measurementNotes: Antiproliferative activity against human Bel7402/5-FU incubated for 72 hrs by MTT assay
- Format: functional, cell-based
Counter-ions that a name gives are not always drawn.
measuredEndpoint: IC50 (µM)

C=C1C(=O)O[C@H]2[C@H]1CC/C(COC(=O)Cn1cc(F)c(=O)n(Cc3cc(F)ccc3F)c1=O)=C\CC[C@@]1(C)O[C@@H]21 :: 4.61
C=C1C(=O)O[C@H]2[C@H]1CC/C(COC(=O)Cn1cc(F)c(=O)n(C)c1=O)=C\CC[C@@]1(C)O[C@@H]21 :: 11.7
C=C1C(=O)O[C@H]2[C@H]1CC/C(COC(=O)Cn1cc(F)c(=O)n(Cc3ccc(Cl)cc3)c1=O)=C\CC[C@@]1(C)O[C@@H]21 :: 2.42
C=C1C(=O)O[C@H]2[C@H]1CC/C(COC(=O)CCC(=O)NCCCCCCNC(=O)Cn1cc(F)c(=O)n(Cc3ccccc3)c1=O)=C\CC[C@@]1(C)O[C@@H]21 :: 16.2
COc1cccc2c1C(=O)c1c(O)c3c(c(O)c1C2=O)C[C@@](O)(C(=O)CO)C[C@@H]3O[C@H]1C[C@H](N)[C@H](O)[C@H](C)O1 [DOXORUBICIN HYDROCHLORIDE] :: 8.36
C=C1C(=O)O[C@H]2[C@H]1CC/C(COC(=O)Cn1cc(F)c(=O)n(Cc3ccc(C(F)(F)F)cc3)c1=O)=C\CC[C@@]1(C)O[C@@H]21 :: 2.25
C=C1C(=O)O[C@H]2[C@H]1CC/C(Cn1cc(Cn3cc(F)c(=O)n(Cc4ccccc4)c3=O)nn1)=C\CC[C@@]1(C)O[C@@H]21 :: 8.84
C=C1C(=O)O[C@H]2[C@H]1CC/C(COC(=O)Cn1cc(F)c(=O)n(Cc3cccc(F)c3)c1=O)=C\CC[C@@]1(C)O[C@@H]21 :: 3.7

The origin of these recorded values is ChEMBL document CHEMBL4311977.
